Cited source: patent US20220112288A1

- TARGET_OR_TEST_SYSTEM: T1, human CD4 on human PBMCs (human, UniProt P01730 26-458)
- T1 construct: whole, on cells; also called hCD4
- METHOD: FACS, clonal hybridoma supernatant on PBMCs
Measured % CD4 Stain by item
Give the quantity in %, number only.

75110_08G08A (antibody, V domains shown) VH: QVQLQESGPGLVKPSETLSLTCSVSGGSISTYYWSWIRQPAGKGLEWIGRICTTENTNYNPSLKSRVTMSIDSSKNQFSLKLSSVTAADTAVYYCARDLERLNYYGMDVWGQGATVTVSS VL: DIQMTQSPSSLSASVGDRVTITCQASQDISNYLNWYQQKPGIAPKLLIYDASNLETGVPSRFSGSGSGTDFTFTISSLQPEDIATYYCQQYDSLPITFGQGTRLEIK : 32.2

Which % CD4 Stain is listed for 75110_10N21A (antibody, V domains shown) VH: EVQLVESGGGLVQPGGSLRLSCAASGFTFSSYDMHWVRQVTGKGLEWVSTIGTAGDTYYPGSVKGRFTISRENAKNSLYLQMNSLRAGDTAVYYCARGGYYYYGMDVWGQGTTVTVSS VL: EIVLTQSPGTLSLSPGERATLSCRASQSFISSYLAWYQQKPGQAPRLLIYGASSRATGIPDRFSGSGSGTDFTLTISRLDPEDFAVYYCQQSGNSPFTFGPGTKVDVK ?
38.3

Which % CD4 Stain is listed for 75110_08H06A (antibody, V domains shown) VH: EVQLVESGGGLVQPGGSLRLSCAASGFTFSNYDMHWVRQATGKGLEWVSTIGTAGDTYYPGSVKGRFTISRENAKNSLYLQMNSLRAGDTAVYYCARGGYDYYGMDVWGQGTTVTVSS VL: EIVLTQSPGTLSLSPGERATLSCRASQSITSIYLAWYRQKPGQAPRLLIYGASSRATGIPDRFSGSGSGTDFTLTISRLEPEDFAVYYCQQYGSSPFTFGPGTKVDIK ?
28.1

Which % CD4 Stain is listed for 75110_07H07A (antibody, V domains shown) VH: EVQVVESGGGLVQPGGSLRLSCAASGFTFSSYWMSWVRQAPGKGLEWVANIKEEGSEKYYVDSVKGRFTISRDNAKNSLYLQMNSLRAEDTAVYYCVREGGQWLALDYWGQGTLVTVSS VL: DIQMTQSPSSVSGSVGDRVTITCRASQGISSWLAWYQQKPGKAPKLLIFGASSLQSGVPSRFSGSGSGTDFTLTISSLQPEDFATYYCQQANSFPWTFGQGTKVQIK ?
37.1
